- System: CHP-212
- assayExplanation: cells
- Type: functional, cell-based, Homo sapiens
- conditionLabel: chp-212
- Description: SANGER: Inhibition of human CHP-212 cell growth in a cell viability assay.
experimentalReadout: IC50 (nM)
Write the answer as a number in nM, unit excluded.

Problem: // query IC50 value for entry "BLEOMYCIN"
Solution: 148

----------
# IC50 per entry
- Tested on: SK-CO-1;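 note: growth inhibition of SK-CO-1 cells, determined by a viability readout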
- assayExplanation: cells
- Assay type: functional, cell-based, Homo sapiens
- conditionLabel: Homo sapiens, SK-CO-1
- Description: SANGER: Inhibition of human SK-CO-1 cell growth in a cell viability assay.

Problem: // query IC50 value for entry "C=C(c1ccc(C(=O)O)cc1)c1cc2c(cc1C)C(C)(C)CCC2(C)C"
Solution: > 8 µM

Problem: // query IC50 value for entry "O=C(O)c1ccc(-c2c[nH]c3ncc(-c4ccccc4)cc23)cc1C1CCCC1"
Solution: > 16 µM

----------
- Tested on: P12-Ichikawa
- assayExplanation: cells
- Format: functional, cell-based, Homo sapiens
- conditionLabel: Homo sapiens, P12-Ichikawa
Counter-ions that a name gives are not always drawn.
# IC50 per entry

Some solved cases for reference:
* COC1=CC(c2cc3ccccc3[nH]2)=N/C1=C\c1[nH]c(C)cc1C [OBATOCLAX MESYLATE] | 73.5 nM
* CC1(C)CNc2cc(NC(=O)c3cccnc3NCc3ccncc3)ccc21 [MOTESANIB] | > 2000 nM
* CO[C@H]1C[C@@H]2CC[C@@H](C)[C@@](O)(O2)C(=O)C(=O)N2CCCC[C@H]2C(=O)O[C@H]([C@H](C)C[C@@H]2CC[C@@H](OC(=O)C(C)(CO)CO)[C@H](OC)C2)CC(=O)[C@H](C)/C=C(\C)[C@@H](O)[C@@H](OC)C(=O)[C@H](C)C[C@H](C)/C=C/C=C/C=C/1C [TEMSIROLIMUS] | 13 nM
* CCN(CC)CCCCNc1ncc2cc(-c3cc(OC)cc(OC)c3)c(NC(=O)NC(C)(C)C)nc2n1 [PD-173074] | > 2000 nM

Shift focus to the following entry.
Problem: Request: IC50, test system P12-Ichikawa, entry "N#Cc1c(O)c2c(-c3ccc(-c4ccccc4O)cc3)csc2[nH]c1=O"
Solution: 489 nM

----------
# pIC50 per entry
- System: D-566MG
- assayExplanation: cells
- Assay type: functional, cell-based, Homo sapiens
- conditionLabel: Homo sapiens, D-566MG
In plain terms, pIC50 is the concentration in mol/L turned into minus its base-10 logarithm.

Some solved cases for reference:
- CN(C)C(=N)NC(=N)N: 1.97
- CC(C)c1ccccc1Cc1cc(C(=O)Nc2ccc(S(=O)(=O)c3ccccc3C(C)(C)C)cc2)c(O)c(O)c1O: 6.94

Shift focus to the following entry.
Problem: // query pIC50 value for entry CC(C)CCN1c2nc(Nc3cc(F)c(O)c(F)c3)ncc2N(C)C(=O)C1C (stereo not given)
Solution: 5.54

----------
- System: H-EMC-SS
- assayExplanation: cells
- Format: functional, cell-based, Homo sapiens
- conditionLabel: h-emc-ss
- Description: SANGER: Inhibition of human H-EMC-SS cell growth in a cell viability assay.
experimentalReadout: pIC50
In plain terms, pIC50 is the concentration in mol/L turned into minus its base-10 logarithm.

Problem: // query pIC50 value for entry "CISPLATIN"
Solution: 4.67

----------
- Tested on: SH-4;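 note: growth inhibition of SH-4 cells, read out with a cell viability assay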
- assayExplanation: cells
- Assay type: functional, cell-based, Homo sapiens
- conditionLabel: Homo sapiens, SH-4
- Description: SANGER: Inhibition of human SH-4 cell growth in a cell viability assay.
experimentalReadout: pIC50
In plain terms, pIC50 is the concentration in mol/L turned into minus its base-10 logarithm.

Some solved cases for reference:
• CC(C)c1ccccc1Cc1cc(C(=O)Nc2ccc(S(=O)(=O)c3ccccc3C(C)(C)C)cc2)c(O)c(O)c1O = 6.64
• Nc1ccn([C@@H]2O[C@H](CO)[C@@H](O)C2(F)F)c(=O)n1 = 8.04
• COc1cccc2c1C(=O)c1c(O)c3c(c(O)c1C2=O)C[C@@](O)(C(=O)CO)C[C@@H]3O[C@H]1C[C@H](N)[C@H](O)[C@H](C)O1 = 7.04

Shift focus to the following entry.
Problem: // query pIC50 value for entry "Cn1cnc2c(F)c(Nc3ccc(Br)cc3Cl)c(C(=O)NOCCO)cc21"
Solution: 6.78

----------
- Test system: Capan-2;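 note: Capan-2 cell growth inhibition, read out with a viability assay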
- assayExplanation: cells
- Format: functional, cell-based, Homo sapiens
- conditionLabel: Homo sapiens, Capan-2
- Description: SANGER: Inhibition of human Capan-2 cell growth in a cell viability assay.
Counter-ions that a name gives are not always drawn.
experimentalReadout: pIC50
In plain terms, pIC50 is the concentration in mol/L turned into minus its base-10 logarithm.

Problem: // query pIC50 value for entry COC1=CC(c2cc3ccccc3[nH]2)=N/C1=C\c1[nH]c(C)cc1C [OBATOCLAX MESYLATE]
Solution: 6.18

----------
# IC50 per entry
- Test system: NCI-H23
- assayExplanation: cells
- Type: functional, cell-based, Homo sapiens
- conditionLabel: Homo sapiens, NCI-H23
- Description: SANGER: Inhibition of human NCI-H23 cell growth in a cell viability assay.

Some solved cases for reference:
* COc1cc2c(Nc3ccc(NC(=O)c4ccccc4)cc3)ncnc2cc1OCCCN1CCOCC1 | > 4 µM
* Nc1ccn([C@@H]2O[C@H](CO)[C@@H](O)C2(F)F)c(=O)n1 | 0.211 µM
* CO[C@H]1C[C@@H]2CC[C@@H](C)[C@@](O)(O2)C(=O)C(=O)N2CCCC[C@H]2C(=O)O[C@H]([C@H](C)C[C@@H]2CC[C@@H](OC(=O)C(C)(CO)CO)[C@H](OC)C2)CC(=O)[C@H](C)/C=C(\C)[C@@H](O)[C@@H](OC)C(=O)[C@H](C)C[C@H](C)/C=C/C=C/C=C/1C | > 0.2 µM

Shift focus to the following entry.
Problem: Request: IC50, test system NCI-H23, entry CC(C)CCN1c2nc(Nc3cc(F)c(O)c(F)c3)ncc2N(C)C(=O)C1C (configuration not stated);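 note: cell viability assay measuring growth inhibition of NCI-H23 cells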
Solution: > 5 µM

----------
- Test system: LNCaP-Clone-FGC
- assayExplanation: cells
- Type: functional, cell-based, Homo sapiens
- conditionLabel: Homo sapiens, LNCaP-Clone-FGC
- Description: SANGER: Inhibition of human LNCaP-Clone-FGC cell growth in a cell viability assay.
experimentalReadout: IC50

- C=C(c1ccc(C(=O)O)cc1)c1cc2c(cc1C)C(C)(C)CCC2(C)C [BEXAROTENE]: > 8 µM
- CN(C)C(=N)NC(=N)N [METFORMIN]: 5230 µM
- COc1cc2ncn(-c3cc(OCc4ccccc4C(F)(F)F)c(C(N)=O)s3)c2cc1OC [GW843682X]: > 0.256 µM
- Oc1ccc2ccccc2c1SSc1c(O)ccc2ccccc12: > 32 µM
- CC(=O)O[C@H]1C(=O)[C@@]2(C)[C@H]([C@H](OC(=O)c3ccccc3)[C@]3(O)C[C@H](OC(=O)[C@H](O)[C@@H](NC(=O)c4ccccc4)c4ccccc4)C(C)=C1C3(C)C)[C@]1(OC(C)=O)CO[C@@H]1C[C@@H]2O [PACLITAXEL]: > 0.102 µM
- CCN(CC)CCCCNc1ncc2cc(-c3cc(OC)cc(OC)c3)c(NC(=O)NC(C)(C)C)nc2n1 [PD-173074]: > 2 µM

Shift focus to the following entry.
Problem: // query IC50 value for entry "Cc1ccc(-c2c(C(=O)CCl)n(CCCO)c3ncnc(N)c23)cc1"
Solution: > 4 µM

----------
- System: EW-13
- assayExplanation: cells
- Assay type: functional, cell-based, Homo sapiens
- conditionLabel: Homo sapiens, EW-13
- Description: SANGER: Inhibition of human EW-13 cell growth in a cell viability assay.
pIC50: −log10 of the molar value.
# pIC50 per entry

• C=C(c1ccc(C(=O)O)cc1)c1cc2c(cc1C)C(C)(C)CCC2(C)C = 6.31
• N[C@@H](CSC(c1ccccc1)(c1ccccc1)c1ccccc1)C(=O)O = < 5.29
• Cc1cn(-c2cc(NC(=O)c3ccc(C)c(Nc4nccc(-c5cccnc5)n4)c3)cc(C(F)(F)F)c2)cn1 = < 5.70
• CCN(CC)CCCCNc1ncc2cc(-c3cc(OC)cc(OC)c3)c(NC(=O)NC(C)(C)C)nc2n1 = < 5.70
• N#Cc1c(O)c2c(-c3ccc(-c4ccccc4O)cc3)csc2[nH]c1=O = < 5.99
• CC1(C)CNc2cc(NC(=O)c3cccnc3NCc3ccncc3)ccc21 = < 5.70
• Cc1ccc(-c2c(C(=O)CCl)n(CCCO)c3ncnc(N)c23)cc1 = < 5.40
• CC[C@H](CO)Nc1nc(NCc2ccccc2)c2ncn(C(C)C)c2n1 = < 4.80

Problem: // query pIC50 value for entry "C#Cc1cccc(Nc2ncnc3cc(OCCOC)c(OCCOC)cc23)c1"
Solution: < 5.70

Problem: // query pIC50 value for entry "COc1cc(N2CCN(C)CC2)ccc1Nc1ncc2c(n1)N(C)c1ccccc1C(=O)N2C"
Solution: < 5.10

Problem: // query pIC50 value for entry Nc1cccc2c1CN(C1CCC(=O)NC1=O)C2=O (stereo unspecified) [LENALIDOMIDE]
Solution: < 5.30

----------
# IC50 per entry
- Tested on: A253 cell line
- assayExplanation: cells
- Type: functional, cell-based, Homo sapiens
- conditionLabel: Homo sapiens, A253
- Description: SANGER: Inhibition of human A253 cell growth in a cell viability assay.
Write the answer as a number in nM, unit excluded.

Some solved cases for reference:
• N[C@@H](CSC(c1ccccc1)(c1ccccc1)c1ccccc1)C(=O)O = 3710
• OCCCNc1cc(-c2ccnc(Nc3cccc(Cl)c3)n2)ccn1 = 64.9

Problem: // query IC50 value for entry "COc1cccc2c1C(=O)c1c(O)c3c(c(O)c1C2=O)C[C@@](O)(C(=O)CO)C[C@@H]3O[C@H]1C[C@H](N)[C@H](O)[C@H](C)O1"
Solution: 46.1
